- target desc: human VR1 (Homo sapiens, UniProt Q8NER1)
- Construct: expressed in transfected cells; host or cells: HEK293
- Sequence (Q8NER1 whole entry): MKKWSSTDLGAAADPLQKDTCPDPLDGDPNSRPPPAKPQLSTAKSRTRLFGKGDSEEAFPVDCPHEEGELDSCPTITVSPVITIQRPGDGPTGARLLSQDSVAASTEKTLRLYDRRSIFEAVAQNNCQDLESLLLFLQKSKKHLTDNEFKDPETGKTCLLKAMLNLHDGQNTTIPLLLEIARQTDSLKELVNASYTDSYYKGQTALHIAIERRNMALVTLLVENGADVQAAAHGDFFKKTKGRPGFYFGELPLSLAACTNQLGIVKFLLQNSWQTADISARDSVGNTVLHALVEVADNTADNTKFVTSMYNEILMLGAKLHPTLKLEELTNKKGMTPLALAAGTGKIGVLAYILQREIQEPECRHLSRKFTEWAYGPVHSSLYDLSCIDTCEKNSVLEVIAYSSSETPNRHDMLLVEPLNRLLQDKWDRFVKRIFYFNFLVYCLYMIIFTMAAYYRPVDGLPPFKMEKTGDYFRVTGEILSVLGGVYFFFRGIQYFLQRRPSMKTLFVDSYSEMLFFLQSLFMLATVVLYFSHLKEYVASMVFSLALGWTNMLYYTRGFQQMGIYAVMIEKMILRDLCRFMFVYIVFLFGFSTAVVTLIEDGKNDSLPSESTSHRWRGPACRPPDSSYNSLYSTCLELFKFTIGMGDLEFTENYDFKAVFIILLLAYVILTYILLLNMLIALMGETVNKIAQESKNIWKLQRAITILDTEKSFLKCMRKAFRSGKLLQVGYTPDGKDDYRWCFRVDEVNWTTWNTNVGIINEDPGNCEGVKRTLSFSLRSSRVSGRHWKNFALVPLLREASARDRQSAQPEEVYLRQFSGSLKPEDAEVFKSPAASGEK
- test method notes: Human VR1 functional assay (FLIPR intracellular Ca2+)
- Assay type: cell-based
- run conditions: agonist response, 12 μM; read-out: % Response Relative to EC80 of Capsaicin (12 μM)
Response field label takes true when Emax at 12 µM is strictly below 80% and false in all other cases.

molecule: CC(C)(C)c1ccc(CCC(=O)Nc2ccc(-c3ccc(O)cc3)nc2)cc1 [Cpd 133]
target desc: human VR1 (Homo sapiens, UniProt Q8NER1)
class name: false

### Prompt Answer whether the molecule CC(=O)Nc1cccc(-c2ccc(NC(=O)CCc3ccc(C(C)(C)C)cc3)cc2C)c1 [Cpd 55] has Emax at 12 µM strictly less than 80%
### Response true

### Prompt Answer whether the molecule O=C(CCc1ccc(C(F)(F)F)cc1)Nc1ccc(-c2ccc(O)cc2)cc1 [Cpd 78] has Emax at 12 µM strictly less than 80%
### Response true

### Prompt Answer whether the molecule O=C(CCc1ccc(C(F)(F)F)cc1)Nc1ccc(-c2cccc(O)c2)cc1 [Cpd 77] has Emax at 12 µM strictly less than 80%
### Response false

### Prompt Answer whether the molecule CC(C)(C)c1ccc(CCC(=O)Nc2ccc(-c3cccc(O)c3)cc2F)cc1 [Cpd 60] has Emax at 12 µM strictly less than 80%
### Response false

### Prompt Answer whether the molecule CC(C)(C)c1ccc(CCC(=O)Nc2ccc(-c3cccc(CN)c3)cc2)cc1 [Cpd 43] has Emax at 12 µM strictly less than 80%
### Response false

### Prompt Answer whether the molecule O=C(CCc1ccc(C(F)(F)F)cc1)Nc1ccc(-c2cccc(O)c2)nc1 [Cpd 147] has Emax at 12 µM strictly less than 80%
### Response false

* * *

- target desc: human VR1 (Homo sapiens, UniProt Q8NER1)
- Construct: expressed in transfected cells; host or cells: HEK293
- test method notes: Human VR1 [3H]RTX binding assay
- run conditions: inhibition of [3H]RTX binding at 1 μM
- Description: Compounds of the present invention were tested for their ability to inhibit the binding of tritiated resiniferatoxin ([^3H] RTX) to human VR1 receptors in a [^3H] […] Data were calculated according to the equation: % inhibtion=(total binding−binding)*100/(total binding−non specific binding). Ki values were calculated based on an average of duplicate measurements using a GraphPad Prism program.
Tag: yes if measured h Binding % I (1 μM) is not below 4%, no if it is.

molecule: CC(=O)Nc1cccc(-c2ccc(NC(=O)CCc3ccc(C(C)(C)C)cc3)nc2)c1 [Cpd 125]
class name: no
--
molecule: CC(C)(C)c1ccc(CCC(=O)Nc2ccc(-c3ccccc3O)nc2)cc1 [Cpd 132]
class name: yes
--
molecule: CC(=O)Nc1cccc(-c2ccc(NC(=O)CCc3ccc(C(C)(C)C)s3)cc2)c1 [Cpd 64]
class name: yes
--
molecule: CC(=O)Nc1cccc(-c2ccc(NC(=O)CCc3ccc(C(C)(C)C)cc3)c(C)c2)c1 [Cpd 54]
class name: yes
--
molecule: CC(C)(C)c1ccc(CCC(=O)Nc2ccccc2-c2ccc(O)cc2)cc1 [Cpd 1]
class name: no
--
molecule: NC(=O)c1cccc(-c2ccc(NC(=O)CCc3ccc(C(F)(F)F)cc3)cc2)c1 [Cpd 48]
class name: no
--
molecule: Cc1cccc(-c2ccc(NC(=O)CCc3ccc(C(C)(C)C)cc3)cc2)c1 [Cpd 28]
class name: yes
--
molecule: CC(=O)Nc1cccc(-c2ccc(NC(=O)CCc3ccc(C(C)(C)C)cc3)c3ccncc23)c1 [Cpd 154]
class name: yes

### Prompt Would you say CC(C)(C)c1ccc(CCC(=O)Nc2ccc(-c3cccc(C(N)=O)c3)cc2)s1 [Cpd 63] shows h Binding % I (1 μM) at minimum 4%?
### Response no

### Prompt Would you say CC(C)(C)c1ccc(CCC(=O)Nc2cccc(-c3cccc(CO)c3)c2)cc1 [Cpd 21] shows h Binding % I (1 μM) at minimum 4%?
### Response no

### Prompt Would you say CN(C)C(=O)c1cccc(-c2cccc(NC(=O)CCc3ccc(C(C)(C)C)cc3)c2)c1 [Cpd 34] shows h Binding % I (1 μM) at minimum 4%?
### Response yes

### Prompt Would you say COc1ccc(-c2cccc(NC(=O)CCc3ccc(C(C)(C)C)cc3)c2)cn1 [Cpd 119] shows h Binding % I (1 μM) at minimum 4%?
### Response no

### Prompt Would you say CN(C)C(=O)c1cccc(-c2cccc(NC(=O)CCc3ccc(C(C)(C)C)cc3)c2)c1 [Cpd 38] shows h Binding % I (1 μM) at minimum 4%?
### Response no

### Prompt Would you say CC(C)(C)c1ccc(CCC(=O)Nc2ccc(-c3ccncc3)cc2CO)cc1 [Cpd 140] shows h Binding % I (1 μM) at minimum 4%?
### Response no

### Prompt Would you say Cc1nc(-c2ccc(NC(=O)CCc3ccc(C(C)(C)C)cc3)cc2)cs1 [Cpd 195] shows h Binding % I (1 μM) at minimum 4%?
### Response yes

### Prompt Would you say O=C(CCc1ccc(C(F)(F)F)cc1)Nc1ccc(-c2ccncc2)nc1 [Cpd 152] shows h Binding % I (1 μM) at minimum 4%?
### Response yes

### Prompt Would you say CC(C)(C)c1csc(CCC(=O)Nc2ccc(-c3ccncc3)cc2)c1 [Cpd 138] shows h Binding % I (1 μM) at minimum 4%?
### Response yes

### Prompt Would you say COc1ccc(-c2ccc(NC(=O)CCc3ccc(C(C)(C)C)cc3)cc2)cn1 [Cpd 121] shows h Binding % I (1 μM) at minimum 4%?
### Response yes

* * *

Recorded pIC50, one value per entry.
- target desc: human VR1 (Homo sapiens)
- test method notes: Human VR1 functional assay (FLIPR intracellular Ca2+)
- run conditions: antagonism of capsaicin-induced Ca2+ increase; read-out: h IC50
Friendly reminder that pIC50 comes from taking -log10 of the concentration in mol/L.

Observe how each entry below is paired with its result.
molecule: Cc1cc(NC(=O)CCc2ccc(N(C)C3CCCCC3)cc2)cnc1-n1cnc(Cl)c1Cl [Cpd 232]
pIC50: 6.60
--
molecule: O=C(CCc1ccc(C(F)(F)F)cc1)Nc1cnc(-c2cccc(O)c2)c(C(F)(F)F)c1 [Cpd 210]
pIC50: 7.24

### Prompt Answer with reported pIC50 of Cc1cc(NC(=O)CCc2ccc(C(C)(C)C)cc2)cc(C)c1-c1ccc(CO)cc1 [Cpd 88]
### Response 5.77

* * *

Recorded h Binding % I (1 μM), one value per entry.
- target desc: human VR1 (Homo sapiens, UniProt Q8NER1)
- Construct: expressed in transfected cells; host or cells: HEK293
- test method notes: Human VR1 [3H]RTX binding assay
- run conditions: inhibition of [3H]RTX binding at 1 μM
Record the value in %, omitting the unit from your answer.

Observe how each entry below is paired with its result.
compound: CN(C)C(=O)c1cccc(-c2ccc(NC(=O)/C=C/c3ccc(C(C)(C)C)cc3)cc2)c1
h Binding % I (1 μM) (%): 16

compound: CC(C)(C)c1ccc(CCC(=O)Nc2ccc(-c3c[nH]cn3)cc2)cc1
h Binding % I (1 μM) (%): 50

compound: O=C(CCc1ccc(C(F)(F)F)cc1)Nc1ccc(-c2cccnc2)nc1
h Binding % I (1 μM) (%): 35

compound: CC(C)(C)c1ccc(CCC(=O)Nc2ccc(-c3cccc(O)c3)c(C(=O)O)c2)cc1
h Binding % I (1 μM) (%): 1

### Prompt Answer with reported h Binding % I (1 μM) of CC1=NN(c2ccc(NC(=O)CCc3ccc(C(C)(C)C)cc3)cc2)C(=O)C1
### Response 1

### Prompt Answer with reported h Binding % I (1 μM) of CC(C)(C)c1ccc(CCC(=O)Nc2cccc(-c3ccc(O)cc3)c2)cc1
### Response 11

### Prompt Answer with reported h Binding % I (1 μM) of CC(C)(C)c1ccc(CCC(=O)Nc2ccc(C3CN=CO3)cc2)cc1 (stereo not drawn)
### Response 45

### Prompt Answer with reported h Binding % I (1 μM) of CC(=O)Nc1cccc(-c2ccc(NC(=O)CCc3ccc(C(F)(F)F)cc3)cc2)c1
### Response 6

### Prompt Answer with reported h Binding % I (1 μM) of CC(C)(C)c1ccc(CCC(=O)Nc2ccc(-c3cccc(OC(F)(F)F)c3)cc2)cc1
### Response 10

* * *

- target desc: human VR1 (Homo sapiens, UniProt Q8NER1)
- Construct: expressed in transfected cells; host or cells: HEK293
- test method notes: Human VR1 functional assay (FLIPR intracellular Ca2+)
- Format: cell-based
- run conditions: inhibition of capsaicin response, 1 μM
Recorded h % I (1 μM), one value per entry.

Observe how each entry below is paired with its result.
compound: CC(C)(C)c1ccc(CCC(=O)Nc2ccc(-c3cccnc3)c(CO)c2)cc1 [Cpd 170]
target desc: human VR1 (Homo sapiens, UniProt Q8NER1)
attribute measured: h % I (1 μM)
observed result: 37%
--
compound: CC(C)(C)c1ccc(CCC(=O)Nc2cnc(-c3ccccc3O)cn2)cc1 [Cpd 183]
target desc: human VR1 (Homo sapiens, UniProt Q8NER1)
attribute measured: h % I (1 μM)
observed result: 1%
--
compound: CC(C)(C)c1ccc(CCC(=O)Nc2cnc(-c3ccc(CO)cc3)cn2)cc1 [Cpd 186]
target desc: human VR1 (Homo sapiens, UniProt Q8NER1)
attribute measured: h % I (1 μM)
observed result: 6%
--
compound: CC(C)(C)c1ccc(CCC(=O)Nc2cnc(-c3ccncc3)cn2)cc1 [Cpd 188]
target desc: human VR1 (Homo sapiens, UniProt Q8NER1)
attribute measured: h % I (1 μM)
observed result: 4%

Turning to the following compound.
### Prompt Answer with reported h % I (1 μM) of CC(C)(C)c1ccc(CCC(=O)Nc2cnc(-c3ccc(O)cc3)cn2)cc1 [Cpd 185]
### Response 1%
